The reported measurements were obtained from patent US20230148299A1.

- targetEntity: FEM1B-FNIP1 (Homo sapiens, UniProt Q9UK73)
- Sequence (Q9UK73 whole entry): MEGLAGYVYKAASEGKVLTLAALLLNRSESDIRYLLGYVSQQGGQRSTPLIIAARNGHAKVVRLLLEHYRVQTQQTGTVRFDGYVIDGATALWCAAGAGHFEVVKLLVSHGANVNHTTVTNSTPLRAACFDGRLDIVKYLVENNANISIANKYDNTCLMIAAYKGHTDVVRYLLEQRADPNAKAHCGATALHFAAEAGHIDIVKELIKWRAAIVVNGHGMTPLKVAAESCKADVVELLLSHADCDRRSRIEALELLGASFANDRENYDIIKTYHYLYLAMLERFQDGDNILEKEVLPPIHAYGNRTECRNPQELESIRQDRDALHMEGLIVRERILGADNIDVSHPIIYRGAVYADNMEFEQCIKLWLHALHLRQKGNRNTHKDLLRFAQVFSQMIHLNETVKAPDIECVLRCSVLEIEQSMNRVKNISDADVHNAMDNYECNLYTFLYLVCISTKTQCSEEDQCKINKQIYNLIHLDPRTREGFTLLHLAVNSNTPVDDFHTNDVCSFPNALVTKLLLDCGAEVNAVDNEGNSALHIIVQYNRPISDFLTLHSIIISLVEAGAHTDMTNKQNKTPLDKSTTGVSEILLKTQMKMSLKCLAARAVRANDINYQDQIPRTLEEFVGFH
- methodNotes: Fluorescence polarization between FEM1B and FNIP1 (covalent ligand screen)
- Type: binding
- experimentalSetup: compound at 5 μM; DMSO = 100; FP between FEM1B and FNIP1; read-out: Normalized FP 5 μM
Measured remaining activity at 5 µM, listed per entry.
Just the number in %, nothing appended.

Look over these answered cases.
[[record]]
compound = "CC(Cl)C(=O)Nc1ccc2c(c1)OCCO2 (stereo not drawn)"
unitannotation = "%"
observedresult = 98.1

[[record]]
compound = "CCOc1ccc(N(CCC#N)C(=O)CCl)cc1"
unitannotation = "%"
observedresult = 40.1

[[record]]
compound = "COc1cc2c(cc1OC)N(C(=O)CCl)CC2"
unitannotation = "%"
observedresult = 15.6

[[record]]
compound = "O=C(CCl)N(Cc1cccs1)c1ccc2c(c1)OCCO2"
unitannotation = "%"
observedresult = 74.8


So the reported remaining activity at 5 µM for O=C(CCl)Nc1cc2c(cc1Cl)OCCO2 , on FEM1B-FNIP1 (Homo sapiens, UniProt Q9UK73), turned out to be 94.8

So the reported remaining activity at 5 µM for N#CCCN(C(=O)CCl)c1ccccc1F , on FEM1B-FNIP1 (Homo sapiens, UniProt Q9UK73), turned out to be 46.8

So the reported remaining activity at 5 µM for N#CCCN(C(=O)CCl)c1ccc(F)cc1 , on FEM1B-FNIP1 (Homo sapiens, UniProt Q9UK73), turned out to be 36.3

So the reported remaining activity at 5 µM for Cc1ccc(N(CCC#N)C(=O)CCl)cc1 , on FEM1B-FNIP1 (Homo sapiens, UniProt Q9UK73), turned out to be 45.8

So the reported remaining activity at 5 µM for CC(Cl)C(=O)N(CCC#N)c1ccccc1 (stereo not drawn) , on FEM1B-FNIP1 (Homo sapiens, UniProt Q9UK73), turned out to be 97.9

* * *

- targetEntity: FEM1B-FNIP1 (Homo sapiens)
- methodNotes: Fluorescence polarization between FEM1B and FNIP1 (covalent ligand screen)
- Type: binding
- experimentalSetup: compound at 5 μM; DMSO = 100; FP between FEM1B and FNIP1; read-out: Normalized FP 5 μM
measuredAttribute: remaining activity at 5 µM

[[record]]
compound = "CC(C)(C)OC(=O)N1CCOc2ccc(N(CCC#N)C(=O)CCl)cc21 [NJH-01-073]"
observedresult = "32.8%"

[[record]]
compound = "N#CCCN(C(=O)CCl)c1ccc2c(c1)OCCO2 [EN106]"
observedresult = "50.6%"

[[record]]
compound = "CCN(C(=O)CCl)c1ccc2c(c1)OCO2 [EN-NJH-004]"
observedresult = "76.1%"


Moving on to the next compound.
get_value(item= N#CCCN(C(=O)CCl)c1ccccc1 [EN-NJH-019] , readout=remaining activity at 5 µM) returns 44.1%

* * *

Measured activity at 50 µM, listed per entry.
- targetEntity: FEM1B-FNIP1 (Homo sapiens, UniProt Q9UK73)
- methodNotes: Fluorescence polarization between FEM1B and FNIP1 (covalent ligand screen)
- Assay type: binding
- experimentalSetup: compound at 50 μM; DMSO = 100; FP between FEM1B and FNIP1; read-out: Normalized FP 50 μM
Just the number in %, nothing appended.

So the reported activity at 50 µM for N#CCCN(C(=O)CCl)c1ccc(F)cc1 [EN-NJH-015] , on FEM1B-FNIP1 (Homo sapiens, UniProt Q9UK73), turned out to be 16.3

So the reported activity at 50 µM for CC(C)(C)OC(=O)CN1CCOc2cc(N(CCC#N)C(=O)CCl)ccc21 [NJH-01-093] , on FEM1B-FNIP1 (Homo sapiens, UniProt Q9UK73), turned out to be 15.2

* * *

- targetEntity: FEM1B-FNIP1 (Homo sapiens, UniProt Q9UK73)
- methodNotes: Fluorescence polarization between FEM1B and FNIP1 (covalent ligand screen)
- Type: binding
- experimentalSetup: compound at 50 μM; DMSO = 100; FP between FEM1B and FNIP1; read-out: Normalized FP 50 μM
measuredAttribute: activity at 50 µM (%)
Just the number in %, nothing appended.

Look over these answered cases.
[[record]]
compound = "CCN(C(=O)CCl)c1ccc2c(c1)OCO2 [EN-NJH-004]"
observedresult = 11.8

[[record]]
compound = "CC(C)(C)OC(=O)N1CCOc2ccc(N(CCC#N)C(=O)CCl)cc21 [NJH-01-073]"
observedresult = 9.87

[[record]]
compound = "O=C(CCl)Nc1ccc2c(c1)OCCO2 [EN-NJH-013]"
observedresult = 21.3

[[record]]
compound = "Cc1cc(N(CCC#N)C(=O)CCl)ccc1Cl [EN-NJH-018]"
observedresult = 12


Moving on to the next compound.
get_value(item= CC(Cl)C(=O)Nc1ccc2c(c1)OCCO2 (centres unmarked) [EN-NJH-005] , readout=activity at 50 µM) returns 101
